system-name: Neuronal acetylcholine receptor; alpha4/beta4 (Homo sapiens, UniProt P30926+P43681)
Sequence (P30926 whole entry): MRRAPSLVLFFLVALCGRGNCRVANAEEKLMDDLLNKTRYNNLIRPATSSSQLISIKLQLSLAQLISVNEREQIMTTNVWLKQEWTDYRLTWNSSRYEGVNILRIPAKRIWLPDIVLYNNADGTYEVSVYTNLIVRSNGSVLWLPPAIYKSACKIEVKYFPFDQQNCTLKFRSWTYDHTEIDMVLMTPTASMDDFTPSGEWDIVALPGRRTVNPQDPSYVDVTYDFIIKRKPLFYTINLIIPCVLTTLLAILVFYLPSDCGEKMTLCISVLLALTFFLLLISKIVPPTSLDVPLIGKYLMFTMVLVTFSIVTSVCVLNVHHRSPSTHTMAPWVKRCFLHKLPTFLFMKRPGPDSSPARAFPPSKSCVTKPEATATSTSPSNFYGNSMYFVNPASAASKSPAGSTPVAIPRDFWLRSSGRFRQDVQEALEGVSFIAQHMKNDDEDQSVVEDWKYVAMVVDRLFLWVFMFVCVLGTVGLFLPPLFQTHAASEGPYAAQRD
Sequence (P43681 whole entry): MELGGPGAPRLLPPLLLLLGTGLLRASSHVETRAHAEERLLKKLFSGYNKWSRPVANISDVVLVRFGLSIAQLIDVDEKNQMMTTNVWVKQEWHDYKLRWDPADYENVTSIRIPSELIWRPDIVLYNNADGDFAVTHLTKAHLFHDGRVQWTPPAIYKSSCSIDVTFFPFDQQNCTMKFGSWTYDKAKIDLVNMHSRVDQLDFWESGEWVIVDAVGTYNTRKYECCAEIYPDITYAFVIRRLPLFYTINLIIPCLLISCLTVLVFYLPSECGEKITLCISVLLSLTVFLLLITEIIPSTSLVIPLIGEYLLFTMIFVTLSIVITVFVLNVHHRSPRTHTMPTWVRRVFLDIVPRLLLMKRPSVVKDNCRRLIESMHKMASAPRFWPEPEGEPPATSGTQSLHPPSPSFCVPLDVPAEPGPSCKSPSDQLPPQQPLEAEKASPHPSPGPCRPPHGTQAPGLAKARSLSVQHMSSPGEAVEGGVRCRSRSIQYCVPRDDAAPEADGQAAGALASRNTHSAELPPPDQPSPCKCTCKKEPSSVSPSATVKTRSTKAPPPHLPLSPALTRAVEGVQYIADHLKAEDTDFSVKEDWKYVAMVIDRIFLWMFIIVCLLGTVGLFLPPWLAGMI
assay-text: Agonist activity at alpha4beta4 nAChR receptor by FLIPR assay
pEC50: −log10 of the molar value.
metric: pEC50

// pEC50 (Neuronal acetylcholine receptor; alpha4/beta4 (Homo sapiens, UniProt P30926+P43681)) for CCN(CC)CCOc1ccc2c(c1)C(=O)c1cc(OCCN(CC)CC)ccc1-2 [TILORONE] = < 5.00

====

Item-by-item account of Kp at 0.5 h
assay-text: Ratio of drug level in brain to plasma in rat at 3 umol/kg, ip at 30 mins
Format: ADME, organism-based
experimental-parameters: read-out: BPR
The answer should be written as a number, with no unit following it.

>>> recorded_value("CN1CC2CN(c3ccc4oc5ccccc5c(=O)c4c3)CC2C1 (configuration not stated)")
48

Switching to the query record.
Entry under test: O=S1(=O)c2ccccc2-c2ccc(N3CCN4CCC3CC4)cc21 . Its Kp at 0.5 h was 12

====

Item-by-item account of pKi
assay-text: Binding affinity to 5HT3
// scale note: pKi = -log10(conc_M); give the bare number

>>> recorded_value("CN1CC2CN(c3ccc4oc5ccccc5c(=O)c4c3)CC2C1 (configuration not stated)")
7.00

Switching to the query record.
Entry under test: O=S1(=O)c2ccccc2-c2ccc(N3CCN4CCC3CC4)cc21 . Its pKi was 6.18

====

system-name: Neuronal acetylcholine receptor; alpha3/beta4 (Homo sapiens, UniProt P30926+P32297)
Sequence (P30926 whole entry): as the sequence (P30926 whole entry) above
Sequence (P32297 whole entry): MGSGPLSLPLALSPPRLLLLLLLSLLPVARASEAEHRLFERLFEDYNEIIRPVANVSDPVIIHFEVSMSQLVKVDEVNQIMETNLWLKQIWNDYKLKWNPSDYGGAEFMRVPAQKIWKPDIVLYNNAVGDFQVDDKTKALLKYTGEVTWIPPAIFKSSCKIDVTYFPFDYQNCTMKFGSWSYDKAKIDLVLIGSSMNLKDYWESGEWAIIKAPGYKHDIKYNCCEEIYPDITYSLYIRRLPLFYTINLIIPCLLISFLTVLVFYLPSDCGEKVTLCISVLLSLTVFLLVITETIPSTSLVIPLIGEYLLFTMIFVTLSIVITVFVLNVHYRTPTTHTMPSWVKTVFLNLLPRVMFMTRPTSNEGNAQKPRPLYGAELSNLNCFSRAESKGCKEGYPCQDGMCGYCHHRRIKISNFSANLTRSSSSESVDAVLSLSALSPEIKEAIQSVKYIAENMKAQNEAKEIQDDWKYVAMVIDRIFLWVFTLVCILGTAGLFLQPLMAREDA
assay-text: Agonist activity at human recombinant alpha3beta4 nAChR in HEK293 cells by FLIPR assay
Type: functional, cell-based
pEC50: −log10 of the molar value.
metric: pEC50

>>> recorded_value("O=S1(=O)c2ccccc2-c2ccc(N3CCN4CCC3CC4)cc21")
"< 4.00"

Switching to the query record.
Entry under test: CN1CC2CN(c3ccc4oc5ccccc5c(=O)c4c3)CC2C1 (configuration not stated) . Its pEC50 was < 4.00

====

system-name: Neuronal acetylcholine receptor; alpha4/beta2 (Homo sapiens, UniProt P17787+P43681)
Sequence (P17787 whole entry): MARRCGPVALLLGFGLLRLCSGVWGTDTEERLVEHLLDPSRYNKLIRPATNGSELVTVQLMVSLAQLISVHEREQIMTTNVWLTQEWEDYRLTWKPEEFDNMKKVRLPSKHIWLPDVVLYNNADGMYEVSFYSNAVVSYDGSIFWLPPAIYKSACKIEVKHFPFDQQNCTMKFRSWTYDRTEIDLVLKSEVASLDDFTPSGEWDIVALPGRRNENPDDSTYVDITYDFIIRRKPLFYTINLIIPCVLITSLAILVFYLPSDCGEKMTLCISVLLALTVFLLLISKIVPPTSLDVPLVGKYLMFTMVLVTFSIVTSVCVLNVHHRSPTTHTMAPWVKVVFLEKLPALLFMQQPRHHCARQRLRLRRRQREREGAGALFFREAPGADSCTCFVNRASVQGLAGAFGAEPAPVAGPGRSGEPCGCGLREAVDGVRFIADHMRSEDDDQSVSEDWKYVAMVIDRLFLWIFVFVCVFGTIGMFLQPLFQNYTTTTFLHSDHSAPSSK
Sequence (P43681 whole entry): as the sequence (P43681 whole entry) above
assay-text: Agonist activity at human recombinant alpha4beta2 nAChR in HEK293 cells by FLIPR assay
Type: functional, cell-based
pEC50: −log10 of the molar value.
metric: pEC50

>>> recorded_value("CN1CC2CN(c3ccc4oc5ccccc5c(=O)c4c3)CC2C1 (configuration not stated)")
"< 4.00"

Switching to the query record.
// pEC50 (Neuronal acetylcholine receptor; alpha4/beta2 (Homo sapiens, UniProt P17787+P43681)) for O=S1(=O)c2ccccc2-c2ccc(N3CCN4CCC3CC4)cc21 = < 4.00

====

Item-by-item account of concentration at 0.5 h
assay-text: Plasma concentration in rat at 3 umol/kg, ip at 30 mins
Format: ADME, organism-based
Your answer is read as ng/mL, so omit the unit and give the number.

>>> recorded_value("CN1CC2CN(c3ccc4oc5ccccc5c(=O)c4c3)CC2C1 (configuration not stated)")
12.4

Entry under test: O=S1(=O)c2ccccc2-c2ccc(N3CCN4CCC3CC4)cc21 . Its concentration at 0.5 h was 8.4

====

system-name: Neuronal acetylcholine receptor subunit alpha-7 (Rattus norvegicus, UniProt Q05941)
Sequence (Q05941 whole entry): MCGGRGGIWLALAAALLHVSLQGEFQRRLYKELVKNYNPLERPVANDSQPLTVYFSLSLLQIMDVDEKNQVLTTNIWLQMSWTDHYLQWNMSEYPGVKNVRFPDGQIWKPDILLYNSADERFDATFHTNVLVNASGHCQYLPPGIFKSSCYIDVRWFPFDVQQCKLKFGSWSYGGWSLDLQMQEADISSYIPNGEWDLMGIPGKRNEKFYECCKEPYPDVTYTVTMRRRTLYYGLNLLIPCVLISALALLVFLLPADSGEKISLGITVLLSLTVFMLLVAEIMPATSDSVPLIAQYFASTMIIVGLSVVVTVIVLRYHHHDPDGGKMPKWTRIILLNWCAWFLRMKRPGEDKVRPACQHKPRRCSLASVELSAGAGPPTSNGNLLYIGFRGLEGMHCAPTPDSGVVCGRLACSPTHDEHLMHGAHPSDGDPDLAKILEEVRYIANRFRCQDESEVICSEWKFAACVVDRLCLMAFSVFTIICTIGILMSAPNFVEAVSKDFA
assay-text: Displacement of [3H]methyllylcaconitine from alpha7 nAChR in rat brain
metric: pKi
// scale note: pKi = -log10(conc_M); give the bare number

Use these answered entries as a reference point.
>>> recorded_value("O=C1c2cc(O[C@H]3CN4CCC3CC4)ccc2-c2ccc(O[C@H]3CN4CCC3CC4)cc21")
9.24
>>> recorded_value("CCN(CC)CCOc1ccc2oc3ccc(OCCN(CC)CC)cc3c(=O)c2c1")
6.36

Switching to the query record.
// pKi (Neuronal acetylcholine receptor subunit alpha-7 (Rattus norvegicus, UniProt Q05941)) for CCN(CC)CCOc1ccc2c(c1)C(=O)c1cc(OCCN(CC)CC)ccc1-2 = 7.25
